Test system: Escherichia coli
Test: Antimicrobial activity against Escherichia coli ATCC 25922 at 100 ug/mL by agar dilution assay
Format: functional, organism-based
The source made the active and inactive calls. No cut-off for these calls is given here.
measured-endpoint: Activity

[
  {
    "item-smiles": "CC(=O)O[C@@H]1[C@H](C(C)C)CC[C@@]2(CO)CC(=O)C=C(C)[C@@H]12",
    "Activity": "inactive"
  },
  {
    "item-smiles": "COc1cc(O)c2c(=O)c(OC)c(-c3ccc(O)c(OC)c3)oc2c1",
    "Activity": "inactive"
  },
  {
    "item-smiles": "COc1cc2oc(-c3ccc(O)c(O)c3)c(OC)c(=O)c2c(O)c1OC",
    "Activity": "inactive"
  },
  {
    "item-smiles": "CC(=O)OC[C@@]12CC[C@@H](C(C)C)[C@@H](OC(C)=O)[C@@H]1C(C)=CC(=O)C2",
    "Activity": "inactive"
  },
  {
    "item-smiles": "COc1ccc(-c2oc3cc(OC)c(OC)c(O)c3c(=O)c2OC)cc1O",
    "Activity": "inactive"
  }
]

API: the following record is the query input.
Inquiry: Check the records and state Activity for CC(=O)OC[C@@]12CC[C@@H](C(C)C)[C@@H](O)[C@@H]1C(C)=CC(=O)C2
Reply text: inactive

----------
System: Bacillus subtilis
Assay: Antimicrobial activity against Bacillus subtilis ATCC 6633 at 100 ug/mL by agar dilution assay
Assay type: functional, organism-based
Activity calls are given as the source filed them. No cut-off for these calls is given here.
measured-endpoint: Activity

Some entries whose results are on file:
[
  {
    "item-smiles": "CC(=O)O[C@@H]1[C@H](C(C)C)CC[C@@]2(CO)CC(=O)C=C(C)[C@@H]12",
    "Activity": "inactive"
  },
  {
    "item-smiles": "COc1cc2oc(-c3ccc(O)c(O)c3)c(OC)c(=O)c2c(O)c1OC",
    "Activity": "inactive"
  },
  {
    "item-smiles": "CC(=O)OC[C@@]12CC[C@@H](C(C)C)[C@@H](O)[C@@H]1C(C)=CC(=O)C2",
    "Activity": "inactive"
  },
  {
    "item-smiles": "COc1cc(O)c2c(=O)c(OC)c(-c3ccc(O)c(OC)c3)oc2c1",
    "Activity": "inactive"
  }
]

Inquiry: Give measured Activity for COc1ccc(-c2oc3cc(OC)c(OC)c(O)c3c(=O)c2OC)cc1O (Bacillus subtilis).
Reply text: inactive

Inquiry: Please report Activity with Bacillus subtilis for item CC(=O)OC[C@@]12CC[C@@H](C(C)C)[C@@H](OC(C)=O)[C@@H]1C(C)=CC(=O)C2 .
Reply text: inactive
